Item-by-item account of Kd
# tgt: T1, recombinant human PD-L2 (human PD-L2 antigen) (human, UniProt Q9BQ51 20-219, limits assumed)
# T1 construct: The Biacore analyte and the ELISA antigen are only called human PD-L2 antigen / recombinant hPD-L2; Whole entry named; also called hPD-L2; recombinant hPD-L2
# T1 sequence (looked up): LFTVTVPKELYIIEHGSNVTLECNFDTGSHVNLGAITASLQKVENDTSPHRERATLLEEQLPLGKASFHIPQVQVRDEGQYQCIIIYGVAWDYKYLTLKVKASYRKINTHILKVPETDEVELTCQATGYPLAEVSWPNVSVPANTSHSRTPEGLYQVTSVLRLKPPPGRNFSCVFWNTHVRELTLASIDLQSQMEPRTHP
# experiment: SPR (Biacore 8K), single cycle kinetics, antibody in culture supernatant, human PD-L2 antigen

>  <binder>
VH8/VK2 (antibody, V domains shown, hIgG1 backbone, CHO expressed) VH: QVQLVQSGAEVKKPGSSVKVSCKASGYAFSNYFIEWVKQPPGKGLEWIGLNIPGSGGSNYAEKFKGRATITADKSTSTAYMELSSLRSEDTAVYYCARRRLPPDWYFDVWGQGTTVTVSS VL: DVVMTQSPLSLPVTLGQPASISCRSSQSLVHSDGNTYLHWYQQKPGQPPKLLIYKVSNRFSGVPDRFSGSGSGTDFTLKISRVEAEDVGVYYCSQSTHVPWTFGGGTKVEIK

>  <measurementUnits>
nM

>  <Kd>
0.0528

$$$$
>  <binder>
VH8/VK1 (antibody, V domains shown, hIgG1 backbone, CHO expressed) VH: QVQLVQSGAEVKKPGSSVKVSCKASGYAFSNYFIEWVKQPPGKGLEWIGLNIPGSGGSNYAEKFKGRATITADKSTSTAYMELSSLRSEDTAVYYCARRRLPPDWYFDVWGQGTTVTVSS VL: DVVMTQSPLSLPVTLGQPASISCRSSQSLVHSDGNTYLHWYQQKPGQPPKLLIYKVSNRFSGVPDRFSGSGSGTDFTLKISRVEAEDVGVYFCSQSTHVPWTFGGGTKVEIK

>  <measurementUnits>
nM

>  <Kd>
0.053

$$$$
>  <binder>
VH6/VK2 (antibody, V domains shown, hIgG1 backbone, CHO expressed) VH: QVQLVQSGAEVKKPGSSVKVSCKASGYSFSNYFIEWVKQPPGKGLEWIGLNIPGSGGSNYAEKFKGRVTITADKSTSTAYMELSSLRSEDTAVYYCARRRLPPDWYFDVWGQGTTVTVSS VL: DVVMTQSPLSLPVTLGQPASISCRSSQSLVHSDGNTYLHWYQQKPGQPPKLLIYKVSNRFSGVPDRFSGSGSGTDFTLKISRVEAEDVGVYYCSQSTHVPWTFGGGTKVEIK

>  <measurementUnits>
nM

>  <Kd>
0.0588

$$$$
